All values here come from patent US20200040103A1.

Listing: pIC50 of selected binders
- subject_of_test: recombinant human KLK5 (human) (UniProt Q9Y337)
- Sequence (Q9Y337 67-293): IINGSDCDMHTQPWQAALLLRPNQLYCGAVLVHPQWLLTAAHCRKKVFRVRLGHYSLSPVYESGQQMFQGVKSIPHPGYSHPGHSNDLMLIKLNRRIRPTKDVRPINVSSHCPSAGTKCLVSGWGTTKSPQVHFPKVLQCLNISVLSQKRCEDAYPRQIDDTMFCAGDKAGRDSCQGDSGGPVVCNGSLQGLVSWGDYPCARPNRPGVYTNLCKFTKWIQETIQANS
- test_details: pro-KLK1 LC/MS assay, 0.5 nM KLK5, 300 nM pro-KLK1; box column 2 of 3; no unit printed, nM per text
Recall that pIC50 is obtained by taking minus log10 of the concentration measured in molar.

Q. I would be grateful if you could share the reported pIC50 for 2B11 (antibody, V domains shown) VH: QSVKESEGGLFKPTDTLTLTCTVSGFSLINYGVSWVRQAPGKGLEWIGYIGSAGSTYYATWAKSRATITRNTNLNTVTLKMTSLTAADTATYFCARAAYSAGSADAEDIWGPGTLVTVSS VL: AYYMTQTPASVEAAVGGTVTIKCQASQSISNYVAWYQQKPGQPPKLLIYRASTLASGVSSRFSGSGSGTEFTLTISDLECADAATYYCHQGYSSSNVDNIFGGGTEVVVK .
A. 9.23

Q. Would you mind telling me what pIC50 value was observed for 10C8 (antibody, V domains shown) VH: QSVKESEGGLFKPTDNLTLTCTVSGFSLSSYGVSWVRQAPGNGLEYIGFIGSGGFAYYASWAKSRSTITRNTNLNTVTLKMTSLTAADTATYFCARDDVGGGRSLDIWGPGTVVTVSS VL: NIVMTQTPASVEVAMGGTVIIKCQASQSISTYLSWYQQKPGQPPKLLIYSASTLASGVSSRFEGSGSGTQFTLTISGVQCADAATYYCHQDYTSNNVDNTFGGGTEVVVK ?
A. 9.65

Q. Reported pIC50, binder 10H3 (antibody, V domains shown) VH: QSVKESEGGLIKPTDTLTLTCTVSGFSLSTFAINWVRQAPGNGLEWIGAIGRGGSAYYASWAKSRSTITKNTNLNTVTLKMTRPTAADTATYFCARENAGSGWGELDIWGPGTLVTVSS VL: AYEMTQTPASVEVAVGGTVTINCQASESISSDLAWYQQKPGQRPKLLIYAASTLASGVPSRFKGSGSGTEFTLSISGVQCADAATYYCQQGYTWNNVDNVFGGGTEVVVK : ____
A. 9.94

Q. Entry under review: 9H3 (antibody, V domains shown) VH: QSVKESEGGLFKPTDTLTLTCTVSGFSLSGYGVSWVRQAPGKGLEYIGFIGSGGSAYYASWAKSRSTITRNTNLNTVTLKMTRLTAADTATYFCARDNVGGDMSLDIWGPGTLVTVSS VL: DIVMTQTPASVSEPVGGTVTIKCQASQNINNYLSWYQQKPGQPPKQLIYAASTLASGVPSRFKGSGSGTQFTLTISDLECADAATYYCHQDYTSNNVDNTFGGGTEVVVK . Reported pIC50?
A. 10.10

Q. // query pIC50 value for entry 9H5 (antibody, V domains shown) VH: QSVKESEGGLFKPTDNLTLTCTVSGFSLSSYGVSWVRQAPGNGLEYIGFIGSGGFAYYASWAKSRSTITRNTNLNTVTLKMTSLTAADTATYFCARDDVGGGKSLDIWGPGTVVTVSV VL: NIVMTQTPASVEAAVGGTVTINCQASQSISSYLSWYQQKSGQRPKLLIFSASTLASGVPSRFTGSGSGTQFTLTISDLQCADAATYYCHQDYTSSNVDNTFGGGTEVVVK
A. 9.46

Q. What does the data say about its pIC50? Entry: 9B6 (antibody, V domains shown) VH: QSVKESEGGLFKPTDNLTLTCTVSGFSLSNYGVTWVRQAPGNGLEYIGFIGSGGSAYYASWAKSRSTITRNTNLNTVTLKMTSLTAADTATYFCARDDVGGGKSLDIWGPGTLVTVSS VL: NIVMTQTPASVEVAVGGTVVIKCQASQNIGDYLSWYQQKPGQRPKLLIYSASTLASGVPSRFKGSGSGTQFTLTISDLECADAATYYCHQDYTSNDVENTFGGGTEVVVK
A. 9.69

Q. Requested read-out: pIC50. Entry: 2-3F4 (antibody, V domains shown) VH: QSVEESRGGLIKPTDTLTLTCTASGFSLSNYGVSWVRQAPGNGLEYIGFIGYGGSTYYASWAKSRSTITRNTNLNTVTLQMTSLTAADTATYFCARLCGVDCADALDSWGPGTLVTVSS VL: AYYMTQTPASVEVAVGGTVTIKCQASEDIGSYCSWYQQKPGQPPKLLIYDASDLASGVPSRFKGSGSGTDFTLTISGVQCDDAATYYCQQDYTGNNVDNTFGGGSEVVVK
A. 9.76

Q. Which measured pIC50 value corresponds to 8F5 (antibody, V domains shown) VH: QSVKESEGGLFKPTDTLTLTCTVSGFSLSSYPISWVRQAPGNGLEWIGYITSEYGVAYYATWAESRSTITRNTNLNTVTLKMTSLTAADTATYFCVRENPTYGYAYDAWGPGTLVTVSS VL: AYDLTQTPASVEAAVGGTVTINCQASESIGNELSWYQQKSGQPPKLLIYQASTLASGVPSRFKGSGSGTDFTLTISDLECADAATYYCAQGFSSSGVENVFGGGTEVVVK ?
A. 9.80

Q. Query: pIC50; subject: 9F2 (antibody, V domains shown) VH: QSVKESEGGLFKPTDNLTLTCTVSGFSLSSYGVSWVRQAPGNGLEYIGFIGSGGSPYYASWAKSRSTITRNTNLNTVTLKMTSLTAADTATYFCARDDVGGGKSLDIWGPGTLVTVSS VL: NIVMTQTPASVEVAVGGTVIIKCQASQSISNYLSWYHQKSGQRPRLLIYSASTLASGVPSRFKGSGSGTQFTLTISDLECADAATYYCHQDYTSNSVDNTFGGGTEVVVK
A. 9.86
